study_system: SMARCA4 (Homo sapiens)
Construct: SMARCA2/SMARCA4 protein degradation selectivity in MV4-11 cells; endogenous in cells; host or cells: MV4-11
procedure_details: SMARCA4 Western blot degradation in MV4-11 cells
Format: cell-based
reported_conditions: MV4-11 cells, 24 h; read-out: SMARCA4 MSD MV411 degradation 24 h: Mean external-Abs DC50
measurement_name: DC50

C#Cc1ccc(CNC(=O)[C@@H]2C[C@@H](O)CN2C(=O)[C@@H](NC(=O)[C@H]2CC[C@H](c3ccc(-c4cnc(N5CCN6c7cc(-c8ccccc8O)nnc7NC[C@H]6C5)nc4)cc3)CC2)C(C)(C)C)cc1 | > 0.1 µM

Please look at the following compound next.
Req: Return reported DC50. Input compound: C#Cc1ccc(CNC(=O)[C@@H]2C[C@@H](O)CN2C(=O)[C@H](NC(=O)N2CC3(CC(N4CCC(c5cnc(N6CCc7[nH]c8nnc(-c9ccccc9O)cc8c7[C@H]6C)nc5)CC4)C3)C2)C(C)(C)CCN2CCN[C@H](C(=O)O)C2)cc1
Resp: > 0.1 µM

* * *

Could you please report measured DC50 for the items listed next?
study_system: SMARCA4 (Homo sapiens, UniProt P51532)
Construct: SMARCA2/SMARCA4 protein degradation selectivity in MV4-11 cells; endogenous in cells; host or cells: MV4-11
Sequence (P51532 whole entry): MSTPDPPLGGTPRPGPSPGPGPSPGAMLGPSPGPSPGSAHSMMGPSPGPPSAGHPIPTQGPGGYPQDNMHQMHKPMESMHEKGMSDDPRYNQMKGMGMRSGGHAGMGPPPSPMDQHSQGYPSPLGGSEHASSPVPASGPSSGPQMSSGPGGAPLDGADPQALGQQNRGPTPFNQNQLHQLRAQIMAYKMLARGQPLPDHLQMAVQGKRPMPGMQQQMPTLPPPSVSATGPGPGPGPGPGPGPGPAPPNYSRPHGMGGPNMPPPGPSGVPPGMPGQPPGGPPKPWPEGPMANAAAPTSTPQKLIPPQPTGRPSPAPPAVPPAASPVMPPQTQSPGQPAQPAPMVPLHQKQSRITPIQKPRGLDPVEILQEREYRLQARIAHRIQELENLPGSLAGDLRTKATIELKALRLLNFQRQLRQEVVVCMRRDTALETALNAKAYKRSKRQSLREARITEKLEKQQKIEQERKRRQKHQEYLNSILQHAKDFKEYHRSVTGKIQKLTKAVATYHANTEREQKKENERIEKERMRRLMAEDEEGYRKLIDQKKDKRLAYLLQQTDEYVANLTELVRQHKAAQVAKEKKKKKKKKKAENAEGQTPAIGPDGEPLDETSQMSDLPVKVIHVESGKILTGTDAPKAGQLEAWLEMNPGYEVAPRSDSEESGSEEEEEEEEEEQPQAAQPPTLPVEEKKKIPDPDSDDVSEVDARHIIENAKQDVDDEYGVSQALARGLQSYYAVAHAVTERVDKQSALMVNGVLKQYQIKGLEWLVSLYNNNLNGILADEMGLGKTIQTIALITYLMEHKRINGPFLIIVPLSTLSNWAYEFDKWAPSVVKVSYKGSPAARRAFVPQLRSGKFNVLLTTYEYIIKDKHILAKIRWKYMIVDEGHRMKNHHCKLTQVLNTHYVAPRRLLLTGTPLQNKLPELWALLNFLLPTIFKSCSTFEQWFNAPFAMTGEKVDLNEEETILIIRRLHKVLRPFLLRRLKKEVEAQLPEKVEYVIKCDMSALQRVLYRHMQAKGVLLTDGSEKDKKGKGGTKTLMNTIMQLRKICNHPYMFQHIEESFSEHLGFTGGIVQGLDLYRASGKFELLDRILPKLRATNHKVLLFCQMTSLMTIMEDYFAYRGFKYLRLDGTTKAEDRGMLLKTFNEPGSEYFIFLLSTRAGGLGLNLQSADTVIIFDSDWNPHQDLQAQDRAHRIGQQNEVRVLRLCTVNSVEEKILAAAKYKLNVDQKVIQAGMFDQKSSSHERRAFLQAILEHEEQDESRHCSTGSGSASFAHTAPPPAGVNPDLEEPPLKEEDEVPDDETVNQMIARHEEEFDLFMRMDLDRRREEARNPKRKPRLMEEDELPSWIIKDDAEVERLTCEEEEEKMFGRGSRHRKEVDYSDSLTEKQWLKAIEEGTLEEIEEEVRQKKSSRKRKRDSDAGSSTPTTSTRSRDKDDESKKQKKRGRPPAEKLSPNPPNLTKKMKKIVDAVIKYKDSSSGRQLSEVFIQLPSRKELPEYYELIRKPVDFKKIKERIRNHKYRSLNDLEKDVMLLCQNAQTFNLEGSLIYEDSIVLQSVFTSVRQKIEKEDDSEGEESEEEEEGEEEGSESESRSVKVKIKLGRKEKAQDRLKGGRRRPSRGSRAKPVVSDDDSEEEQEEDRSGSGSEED
procedure_details: SMARCA4 Western blot degradation in MV4-11 cells
Type: cell-based
reported_conditions: MV4-11 cells, 24 h; read-out: SMARCA4 MSD MV411 degradation 24 h: Mean external-Abs DC50

C#Cc1ccc(CNC(=O)[C@@H]2C[C@@H](O)CN2C(=O)[C@@H](NC(=O)[C@H]2CC3(C2)C[C@H](N2CCN(C(=O)CN4CCN5c6cc(-c7ccccc7O)nnc6NC[C@H]5C4)CC2)C3)C(C)(C)C)cc1 (some centres unmarked) [I-240] | 10 to 100 nM

Next compound, DC50 to be filled in.
Req: Recall and state the measured DC50 for Cc1ncsc1-c1ccc(CNC(=O)[C@@H]2C[C@@H](O)CN2C(=O)[C@@H](NC(=O)[C@H]2CC3(C2)C[C@H](N2CCC(c4ccnc(N5CCN6c7cc(-c8ccccc8O)nnc7NC[C@@H]6C5)n4)CC2)C3)C(C)(C)C)cc1 (single isomer, unassigned) [I-4] .
Resp: > 100 nM

* * *

study_system: SMARCA2 (Homo sapiens)
Sequence (P51531 whole entry): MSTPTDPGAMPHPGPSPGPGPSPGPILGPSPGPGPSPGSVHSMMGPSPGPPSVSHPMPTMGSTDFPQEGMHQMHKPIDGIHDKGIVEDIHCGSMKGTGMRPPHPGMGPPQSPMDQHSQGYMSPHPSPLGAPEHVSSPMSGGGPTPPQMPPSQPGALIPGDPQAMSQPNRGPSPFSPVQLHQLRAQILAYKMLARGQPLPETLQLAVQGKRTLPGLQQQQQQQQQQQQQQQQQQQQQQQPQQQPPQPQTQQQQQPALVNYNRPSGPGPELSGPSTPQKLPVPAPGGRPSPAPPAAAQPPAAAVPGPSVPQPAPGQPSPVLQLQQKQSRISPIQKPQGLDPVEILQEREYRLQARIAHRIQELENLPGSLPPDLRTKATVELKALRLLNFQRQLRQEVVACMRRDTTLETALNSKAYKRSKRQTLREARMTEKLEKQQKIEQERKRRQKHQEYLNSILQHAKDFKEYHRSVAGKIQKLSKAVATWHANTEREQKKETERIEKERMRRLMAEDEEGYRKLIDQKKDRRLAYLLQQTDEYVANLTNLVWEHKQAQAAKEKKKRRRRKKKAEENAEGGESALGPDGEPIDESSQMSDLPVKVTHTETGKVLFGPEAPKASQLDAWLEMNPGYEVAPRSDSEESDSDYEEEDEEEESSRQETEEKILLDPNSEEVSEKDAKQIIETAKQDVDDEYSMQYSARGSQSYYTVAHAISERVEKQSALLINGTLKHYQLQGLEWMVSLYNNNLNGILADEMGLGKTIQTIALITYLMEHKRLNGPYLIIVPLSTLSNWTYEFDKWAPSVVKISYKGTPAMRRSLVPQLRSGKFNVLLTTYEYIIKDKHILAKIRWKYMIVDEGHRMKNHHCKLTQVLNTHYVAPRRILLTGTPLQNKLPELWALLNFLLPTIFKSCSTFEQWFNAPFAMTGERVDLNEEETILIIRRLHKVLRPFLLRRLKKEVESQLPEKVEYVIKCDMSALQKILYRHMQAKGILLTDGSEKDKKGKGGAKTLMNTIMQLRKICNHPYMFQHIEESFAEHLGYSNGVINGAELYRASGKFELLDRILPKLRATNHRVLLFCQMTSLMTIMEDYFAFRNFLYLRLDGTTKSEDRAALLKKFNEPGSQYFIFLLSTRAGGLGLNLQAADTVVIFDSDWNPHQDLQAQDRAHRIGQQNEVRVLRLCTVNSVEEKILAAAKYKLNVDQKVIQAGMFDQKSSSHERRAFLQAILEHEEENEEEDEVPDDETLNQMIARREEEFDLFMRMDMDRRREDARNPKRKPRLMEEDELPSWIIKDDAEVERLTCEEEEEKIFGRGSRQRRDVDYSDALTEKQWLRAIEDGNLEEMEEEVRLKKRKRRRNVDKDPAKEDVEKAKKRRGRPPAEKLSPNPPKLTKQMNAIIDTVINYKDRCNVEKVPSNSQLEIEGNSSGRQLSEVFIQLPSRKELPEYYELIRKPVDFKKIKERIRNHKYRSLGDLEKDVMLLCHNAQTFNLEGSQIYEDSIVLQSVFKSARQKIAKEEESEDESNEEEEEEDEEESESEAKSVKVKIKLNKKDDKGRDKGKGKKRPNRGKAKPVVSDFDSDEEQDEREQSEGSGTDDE
procedure_details: MSD SMARCA2 degradation in A549 cell line
Format: cell-based
reported_conditions: A549 cells, 24 h, read-out: SMARCA2 MSD A549 degradation 24 h: Average external-Abs DC50
Experimental: Example 10. MSD SMARCA2 Degradation in A549 Cell Line Cells were seeded into 96-well plates (A549 cells: 2×10^4 cells/well/100 ul media) and incubated overnight. […] The MSD plate was washed three times with 150 uL/well of TBST and 150 ul/well of 2× MSD reading buffer diluted from 4× (MSD, R92TC-2) with water was added. Lastly, the MSD instrument was read. […]
measurement_name: DC50

Recorded results for 3 compounds are shown here.
C#Cc1ccc(CNC(=O)[C@@H]2C[C@@H](O)CN2C(=O)[C@@H](NC(=O)CCCCCCCN2CCC(N3CC4(CC(N5CCN6c7cc(-c8ccccc8O)nnc7NC[C@H]6C5)C4)C3)CC2)C(C)(C)C)cc1 | 50 to 100 nM
Cc1ncsc1-c1ccc(CNC(=O)[C@@H]2C[C@@H](O)CN2C(=O)C(c2cc(OC[C@H]3CC[C@H](N4CCC(c5cnc(N6CCc7[nH]c8nnc(-c9ccccc9O)cc8c7[C@H]6C)nc5)CC4)CC3)no2)C(C)C)cc1 (single isomer, unassigned) | < 10 nM
C#Cc1ccc(CNC(=O)[C@@H]2C[C@@H](O)CN2C(=O)[C@@H](NC(=O)C2CCC3(CC2)CC(N2CCC(N4CC(C(=O)N5CCN6c7cc(-c8ccccc8O)nnc7NC[C@H]6C5)C4)CC2)C3)C(C)(C)C)cc1 (stereo partly drawn) | > 100 nM

Hello, I would appreciate it if you could give DC50 for each entry below.
1. CC(C)C(C(=O)N1C[C@H](O)C[C@H]1C(=O)N[C@@H](C)C#Cc1ccccc1)c1cc(OCCN2CCC(N3CCC(N4CCC(CN5CCN6c7cc(-c8ccccc8O)nnc7NC[C@H]6C5)CC4)CC3)CC2)no1 (stereo partly drawn)
2. C#Cc1ccc(CNC(=O)[C@@H]2C[C@@H](O)CN2C(=O)[C@@H](NC(=O)N2CCN(C[C@H]3CCN(c4cnc(N5CCc6[nH]c7nnc(-c8ccccc8O)cc7c6[C@H]5C)nc4)C3)CC2)C(C)(C)C)cc1 (single isomer, unassigned)

Resp:
1: > 100 nM; 2: > 100 nM

For every item below, please supply its DC50.
1. C#Cc1ccc(CNC(=O)[C@@H]2C[C@@H](O)CN2C(=O)[C@@H](NC(=O)N2CCN(CC3CCN([C@H]4CC[C@@H](N5CCc6[nH]c7nnc(-c8ccccc8O)cc7c6[C@H]5C)CC4)CC3)CC2)C(C)(C)C)cc1
2. C#Cc1ccc([C@H](C)NC(=O)[C@@H]2C[C@@H](O)CN2C(=O)[C@@H](NC(=O)[C@H]2CCC3(CC2)C[C@H](N2CCN(c4cnc(N5CCN6c7cc(-c8ccccc8O)nnc7NC[C@H]6C5)nc4)CC2)C3)C(C)(C)C)cc1 (single isomer, unassigned) [I-233]
3. Cc1ncsc1-c1ccc(CNC(=O)[C@@H]2C[C@@H](O)CN2C(=O)C(c2cc(OCCCN3CCC(c4cnc(N5CCN6c7cc(-c8ccccc8O)nnc7NCC6C5)nc4)CC3)no2)C(C)C)cc1 (stereo in doubt)
4. C#Cc1ccc(CNC(=O)[C@@H]2C[C@@H](O)CN2C(=O)[C@@H](NC(=O)[C@H]2CCC3(CC2)C[C@H](N2CCC(N4CCC(N5CCN6c7cc(-c8ccccc8O)nnc7NC[C@H]6C5)CC4)CC2)C3)C(C)(C)C)c(Cl)c1 (stereo partly drawn) [I-222]

Resp:
1: > 100 nM; 2: 10 to 50 nM; 3: 10 to 50 nM; 4: > 100 nM

* * *

study_system: SMARCA4 (Homo sapiens, UniProt P51532)
Construct: SMARCA2/SMARCA4 protein degradation selectivity in MV4-11 cells; endogenous in cells; host or cells: MV4-11
procedure_details: SMARCA4 Western blot degradation in MV4-11 cells
Assay type: cell-based
reported_conditions: MV4-11 cells, 24 h; read-out: SMARCA4 MSD MV411 degradation 24 h: Mean external-Abs DC50
Would you kindly list DC50 for each of these compounds?

A selection of reference data follows.
C#Cc1ccc([C@H](C)NC(=O)[C@@H]2C[C@@H](O)CN2C(=O)[C@@H](NC(=O)[C@H]2CC3(C2)C[C@H](N2CCC(N4CCC(N5CCN6c7cc(-c8ccccc8O)nnc7NC[C@H]6C5)CC4)CC2)C3)C(C)(C)C)cc1 (single isomer, unassigned) [I-213] | > 100 nM
C#Cc1ccc(CNC(=O)[C@@H]2C[C@@H](O)CN2C(=O)[C@@H](NC(=O)N2CC3(CC(N4CCC(c5cnc(N6CCN7c8cc(-c9ccccc9O)nnc8NC[C@H]7C6)nc5)CC4)C3)C2)C(C)(C)C)cc1 | 10 to 100 nM

Quick one: give me DC50 for each item below, same order please.
1. C#Cc1ccc(CNC(=O)[C@@H]2C[C@@H](O)CN2C(=O)[C@@H](NC(=O)[C@H]2CCC3(CC2)C[C@H](N2CCC(N4CCC(N5CCN6c7cc(-c8ccccc8O)nnc7NC[C@H]6C5)CC4)CC2)C3)C(C)(C)C)c(Cl)c1 (single isomer, unassigned) [I-221]
2. C#Cc1ccc(CNC(=O)[C@@H]2C[C@@H](O)CN2C(=O)[C@@H](NC(=O)N2CCC(N3CCC(N4CC5(CC(N6CCc7[nH]c8nnc(-c9ccccc9O)cc8c7[C@H]6C)C5)C4)CC3)CC2)C(C)(C)C)cc1

Resp:
1. > 100 nM
2. > 100 nM

* * *

study_system: SMARCA4 (Homo sapiens, UniProt P51532)
Construct: SMARCA2/SMARCA4 protein degradation selectivity in MV4-11 cells; endogenous in cells; host or cells: MV4-11
procedure_details: SMARCA4 Western blot degradation in MV4-11 cells
Assay type: cell-based
reported_conditions: MV4-11 cells, 24 h; read-out: SMARCA4 MSD MV411 degradation 24 h: Mean external-Abs DC50
measurement_name: DC50

Below, 2 molecules whose answers are already recorded.
C#Cc1ccc(CNC(=O)[C@@H]2C[C@@H](O)CN2C(=O)[C@@H](NC(=O)N2CCN(CC3CCN(c4cnc(N5CCN6c7cc(-c8ccccc8O)nnc7NC[C@H]6C5)nc4)CC3)CC2)C(C)(C)C)cc1 | > 100 nM
C#Cc1ccc(CNC(=O)[C@@H]2C[C@@H](O)CN2C(=O)[C@@H](NC(=O)[C@H]2CCC3(CC2)C[C@H](N2CCC(c4cnc(N5CCN6c7cc(-c8ccccc8O)nnc7NC[C@H]6C5)nc4)CC2)C3)C(C)(C)C)c(Cl)c1 (single isomer, unassigned) [I-99] | > 100 nM

Req: Give DC50 for C#Cc1ccc(CNC(=O)[C@@H]2C[C@@H](O)CN2C(=O)[C@@H](NC(=O)N2CCN(C[C@H]3CC[C@@H](N4CCc5[nH]c6nnc(-c7ccccc7O)cc6c5[C@H]4C)CC3)CC2)C(C)(C)C)cc1
Resp: > 100 nM
